Target Desc: KAT2A (Homo sapiens, UniProt Q92830)
Sequence (Q92830 whole entry): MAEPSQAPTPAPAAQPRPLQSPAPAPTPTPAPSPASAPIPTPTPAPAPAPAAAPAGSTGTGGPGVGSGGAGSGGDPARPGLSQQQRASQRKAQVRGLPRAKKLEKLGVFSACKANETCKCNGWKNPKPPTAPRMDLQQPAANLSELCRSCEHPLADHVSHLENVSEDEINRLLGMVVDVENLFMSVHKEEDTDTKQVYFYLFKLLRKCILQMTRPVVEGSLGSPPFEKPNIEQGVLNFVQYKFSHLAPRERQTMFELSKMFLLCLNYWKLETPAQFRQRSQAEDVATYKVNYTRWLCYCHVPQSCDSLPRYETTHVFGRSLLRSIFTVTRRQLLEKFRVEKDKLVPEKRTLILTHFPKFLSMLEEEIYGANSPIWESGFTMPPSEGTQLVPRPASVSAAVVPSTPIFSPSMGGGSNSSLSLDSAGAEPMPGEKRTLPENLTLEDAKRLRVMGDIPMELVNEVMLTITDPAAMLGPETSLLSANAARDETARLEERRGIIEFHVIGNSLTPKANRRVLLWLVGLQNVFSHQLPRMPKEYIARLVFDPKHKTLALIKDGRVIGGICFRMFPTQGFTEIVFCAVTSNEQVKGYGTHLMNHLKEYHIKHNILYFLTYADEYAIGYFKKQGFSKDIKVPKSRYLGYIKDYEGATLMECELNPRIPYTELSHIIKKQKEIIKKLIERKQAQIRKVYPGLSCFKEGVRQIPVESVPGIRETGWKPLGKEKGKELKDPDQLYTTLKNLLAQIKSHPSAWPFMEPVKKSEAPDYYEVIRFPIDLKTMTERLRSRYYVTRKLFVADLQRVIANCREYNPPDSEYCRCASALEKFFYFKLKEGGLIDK
Run Description: KAT2A degradation, Western Blot (Jess), MOLM-13 cells
Format: cell-based
Set-up: degrader, Western blot
Setup Conditions: MOLM-13 cells, KAT2A, 24 h, Western Blot, vs DMSO; read-out: KAT2A MOLM-13 DC50
Quantity: DC50

Example entries begin here.
INSERT INTO measurements (compound, quantity, value_reported) VALUES
  ('CN1C[C@H](Nc2cnn(C)c(=O)c2Br)C[C@H](c2ccc(C(=O)N3CCC(CN4CCN(c5ccc6c(c5)C(=O)N(C5CCC(=O)NC5=O)C6=O)CC4)CC3)cc2)C1 (some centres unmarked) [Compound 40]', 'DC50', '< 1 nM'),
  ('CN1C[C@H](Nc2cnn(C)c(=O)c2Cl)C[C@H](c2ccc(CN3CCN(c4ccc(C5CCC(=O)NC5=O)cc4)CC3)cc2)C1 (some centres unmarked) [Compound 104]', 'DC50', '1 to 30 nM'),
  ('CN1C[C@H](Nc2cnn(C)c(=O)c2Br)C[C@H](c2ccc(C(=O)N3CCN(c4ccc5c(c4)n(C)c(=O)n5C4CCC(=O)NC4=O)CC3)cc2)C1 (some centres unmarked) [Compound 137]', 'DC50', '1 to 30 nM');

Data request: Given the compound Cc1c(N[C@@H]2C[C@H](c3ccc(CN4CCN(c5cccc(C6CCC(=O)NC6=O)c5)CC4)cc3)CN(C)C2)cnn(C)c1=O (some centres unmarked) [Compound 187] , what is its reported DC50?
Data returned: < 1 nM

Data request: Given the compound CN1C[C@H](Nc2cnn(C)c(=O)c2Br)C[C@H](c2ccc(C(=O)N(C)CCOc3cccc4c3C(=O)N(C3CCC(=O)NC3=O)C4=O)cc2)C1 (some centres unmarked) [Compound 44] , what is its reported DC50?
Data returned: 1 to 30 nM

Data request: Given the compound Cc1ccc(N2CCC3(CCN(C(=O)c4ccc([C@H]5C[C@@H](Nc6cnn(C)c(=O)c6Br)CN(C)C5)cc4)CC3)CC2)cc1C1CCC(=O)NC1=O (some centres unmarked) [Compound 179] , what is its reported DC50?
Data returned: < 1 nM

Data request: Given the compound CN1C[C@H](Nc2cnn(C)c(=O)c2Br)C[C@H](c2ccc(CN3CCC(Oc4cccc5c4C(=O)N(C4CCC(=O)NC4=O)C5=O)CC3)cc2)C1 (some centres unmarked) [Compound 36] , what is its reported DC50?
Data returned: 1 to 30 nM

Data request: Given the compound CN1C[C@H](Nc2cnn(C)c(=O)c2Br)C[C@H](c2ccc(CNc3ccc4c(c3)C(=O)N(C3CCC(=O)NC3=O)C4=O)cc2)C1 (some centres unmarked) [Compound 106] , what is its reported DC50?
Data returned: < 1 nM

Data request: Given the compound CN1C[C@H](Nc2cnn(C)c(=O)c2Cl)C[C@H](c2ccc(C(=O)N3CCN(Cc4ccc5c(c4)CN(C4CCC(=O)NC4=O)C5=O)CC3)cc2)C1 (some centres unmarked) [Compound 76] , what is its reported DC50?
Data returned: 1 to 30 nM

Data request: Given the compound CN1C[C@H](Nc2cnn(C)c(=O)c2Br)C[C@H](c2ccc(C(=O)N3CCC(C#CC(=O)Nc4ccc5c(c4)CN(C4CCC(=O)NC4=O)C5=O)CC3)cc2)C1 (some centres unmarked) [Compound 5] , what is its reported DC50?
Data returned: 1 to 30 nM

Data request: Given the compound CN1C[C@H](Nc2cnn(C)c(=O)c2Br)C[C@H](c2ccc(C(=O)N3CCC(N4CCN(c5ccc6c(c5)C(=O)N(C5CCC(=O)NC5=O)C6=O)CC4)CC3)cc2)C1 (some centres unmarked) [Compound 96] , what is its reported DC50?
Data returned: < 1 nM
